Test system: RXF 631
Experiment: NCI tumour cell line growth inhibition, 48 h
Active and inactive are the calls of the source. Rule as the data show it: active = GI50 up to about 1.1 µM and inactive = higher.
quantityKind: GI50

Consider the reported GI50 for these compounds:
[[record]]
compound = "COc1ccc(/C=C2\\CCC(C)(CN(C)C)C2=O)cc1OC (stereo unspecified)"
assayvalue = "> 100 µM (inactive)"

[[record]]
compound = "COc1cccc(/C=C2\\CCC(CCN(C)C)(C3=CCCC3)C2=O)c1 (stereo unspecified)"
assayvalue = "23.7 µM (inactive)"

[[record]]
compound = "CCCN(CCCCC(NC(C)=O)C(=O)NCc1ccccc1)C(=O)N(CCCl)N=O (stereo unspecified)"
assayvalue = "> 100 µM (inactive)"

[[record]]
compound = "CCC1N2CCCCC2[C@@H]2c3[nH]c4ccccc4c3CCN12 (stereo partly specified)"
assayvalue = "> 100 µM (inactive)"


Below are 2 compounds. Give each one its GI50.
1. O=C(N/C(=C\c1cc(Cl)ccc1Cl)c1nc2ccccc2[nH]1)c1ccccc1
2. CC1(c2ccc(F)cc2)C(C#N)C(=O)NC(=O)C1C#N (stereo unspecified)

-- reply
1. 22.3 µM (inactive)
2. > 100 µM (inactive)

* * *

Assignment: determine reported GI50 for the given compounds.
System: HCT-116
Experiment: NCI tumour cell line growth inhibition, 48 h
The source made the active and inactive calls. Rule as the data show it: active = GI50 up to about 1.1 µM and inactive = higher.

Below are 4 compounds. Give each one its GI50.
1. CCOC(=O)c1cc(Cl)ccc1OC(N)=O
2. Cc1ccc(/C=N/n2c(Cc3ccccc3)n[nH]c2=O)cc1
3. CC1CCN(c2cc(-c3cc4ccccc4o3)oc(=O)c2C#N)CC1
4. CC[C@@H]1ON(C)[C@H]2CN(C)C(=O)[C@@H]12

-- reply
> 100 µM (inactive)
> 100 µM (inactive)
> 100 µM (inactive)
> 100 µM (inactive)

* * *

Test system: KM12
Experiment: NCI tumour cell line growth inhibition, 48 h
The source made the active and inactive calls. Cut-off read from the data, not from the text of the source: active = GI50 up to about 1.1 µM and inactive = higher.
quantityKind: GI50

Consider the reported GI50 for these compounds:
[[record]]
compound = "CC(C)N1CN(C(C(=O)N[C@@H]2C(=O)N3C2SC(C)(C)C3C(=O)O)c2ccccc2)CSC1=S (some centres undefined)"
assayvalue = "> 100 µM (inactive)"

[[record]]
compound = "CC(=O)N(C)c1ccc2ncccc2c1[N+](=O)[O-]"
assayvalue = "> 100 µM (inactive)"


Below are 5 compounds. Give each one its GI50.
1. CN1C(=O)C2(C)SC1(c1ccccc1)C1C(=O)N(c3ccccc3)C(=O)C12 (centres undefined)
2. COc1cc(OC)c(OC)cc1/C=N/NC(=O)N/N=C/c1cc(OC)c(OC)cc1OC
3. C=C1C[C@@H]2CC[C@@]34CC5O[C@H]6C(O[C@H]7CC[C@H](CC(=O)O[C@@H]8[C@@H](C)[C@@H]9O[C@@H]%10C[C@]%11(C[C@@H]%12O[C@]%13(C[C@H](C)[C@@H]%14O[C@@H]%15CC(C(COC(C)=O)OC(C)=O)O[C@@H]%15C[C@@H]%14O%13)C[C@H](C)[C@@H]%12O%11)O[C@@H]%10C[C@@H]9O[C@H]8CC8O[C@@H](CC[C@@H]1O2)C[C@@H](C)C8(O)CO)O[C@@H]7[C@@H]6O3)[C@H]5O4 (some centres undefined)
4. O=C1CC(C(COCc2ccccc2)OCc2ccccc2)CC(=O)N1 (centres undefined)
5. CC12C(=O)OC(=O)C1(C)C1C=CC2O1 (centres undefined)

-- reply
1: 66.1 µM (inactive); 2: > 100 µM (inactive); 3: 0.327 µM (active); 4: > 100 µM (inactive); 5: > 100 µM (inactive)

* * *

Tested on: NCI-H522
Experiment: NCI tumour cell line growth inhibition, 48 h
Activity calls are given as the source filed them. No stated cut-off is given here; in the data, active = GI50 up to about 1.1 µM and inactive = higher.
Assignment: determine reported GI50 for the given compounds.

Below are 3 compounds. Give each one its GI50.
1. O=C(/C=C/c1ccc(O)c(O)c1O)OCCc1ccccc1
2. CC(C)N1CN(C(C(=O)N[C@@H]2C(=O)N3C2SC(C)(C)C3C(=O)O)c2ccccc2)CSC1=S (stereo partly drawn)
3. C(=C\C(SCc1ccccc1)SCc1ccccc1)/c1ccccc1

-- reply
27.9 µM (inactive)
27.8 µM (inactive)
> 10 µM (inactive)

Below are 5 compounds. Give each one its GI50.
1. COC(=O)C1CCC(=O)N1C(c1ccc(OC)cc1)c1ccc2c(c1)OCO2 (stereo not drawn)
2. COc1ccc(-c2oc3ccccc3c(=O)c2O)cc1OC [3-HYDROXY-3',4'-DIMETHOXYFLAVONE]
3. CN(CCCN=C=S)CCCN1c2ccccc2CCc2ccccc21
4. COC(=O)c1ccccc1C1CN=NC12Cc1ccc(C)cc1C2=O (stereo not drawn)
5. Cc1ccc2c(c1-c1ccccc1)C(=O)OC2

-- reply
1. 22.4 µM (inactive)
2. 4.63 µM (inactive)
3. 1.95 µM (inactive)
4. 30.5 µM (inactive)
5. > 100 µM (inactive)

* * *

Test system: COLO 205
Experiment: NCI tumour cell line growth inhibition, 48 h
Active and inactive are the calls of the source. Cut-off read from the data, not from the text of the source: active = GI50 up to about 1.1 µM and inactive = higher.
Assignment: determine reported GI50 for the given molecules.

Consider the reported GI50 for these molecules:
[[record]]
molecule = "CC(=O)O[C@H]1C(=O)[C@@]2(C)[C@H]([C@H](OC(=O)c3ccccc3)[C@]3(O)C[C@H](OC(=O)[C@H](O)[C@@H](NC(=O)c4cccc(N=[N+]=[N-])c4)c4ccccc4)C(C)=C1C3(C)C)[C@]1(OC(C)=O)CO[C@@H]1C[C@@H]2O"
quantitykind = "GI50"
assayvalue = "0.00301 µM (active)"

[[record]]
molecule = "N/N=C1/CCCc2nonc21"
quantitykind = "GI50"
assayvalue = "> 100 µM (inactive)"


--- query ---
Looking up CNCC(SC)c1ccc(O)c(O)c1 (stereo not drawn) , I see its GI50 listed as 17.1 µM (inactive)

* * *

Test system: 786-0
Assay: NCI tumour cell line growth inhibition, 48 h
Activity calls are given as the source filed them. Cut-off read from the data, not from the text of the source: active = GI50 up to about 1.1 µM and inactive = higher.
quantityKind: GI50

Below are 7 compounds. Give each one its GI50.
1. COc1c(OC/C=C(\C)CCC=C(C)C)ccc2ccc(=O)oc12
2. CC1(c2ccc(F)cc2)C(C#N)C(=O)NC(=O)C1C#N (stereo not drawn)
3. CN(CCN(C)C(=S)NN)C(=S)NN
4. CC(C)(C)c1cc(Cc2ccc(S(C)(=O)=O)cc2)c(O)c(C(C)(C)C)c1
5. CCOC(=O)Nc1cc2c(c(N)n1)N=C(c1ccccc1)[C@H](C)N2 [MIVOBULIN ISETHIONATE]
6. CN1C(=O)C2(C)SC1(c1ccccc1)C1C(=O)N(c3ccccc3)C(=O)C12 (stereo not drawn)
7. Cc1cccc(/C=N/NC(=S)NC2CCCCC2)n1

-- reply
> 100 µM (inactive)
> 100 µM (inactive)
> 100 µM (inactive)
16.1 µM (inactive)
0.00215 µM (active)
> 100 µM (inactive)
20 µM (inactive)

Below are 6 compounds. Give each one its GI50.
1. COc1ccc(NC(=O)C(=O)Cc2ccc([N+](=O)[O-])c([N+](=O)[O-])c2CC(=O)C(=O)Nc2ccc(OC)cc2OC)c(OC)c1
2. CCOC(=O)[C@@H]1[C@@H](c2ccccc2)N(C)O[C@@]1(c1ccccc1)C(F)(F)F
3. CCOC(=O)NN(C(=O)OCC)c1c(C)cc(C)cc1C
4. CN1C=C(C(N)=O)Cc2ccsc21
5. NNC(=O)c1ccccc1Nc1nc(-c2cccs2)nc2ccc(Br)cc12
6. Cc1ccc(S(=O)(=O)NN=C2C(C)(C)CC2(C)C)cc1

-- reply
> 100 µM (inactive)
> 100 µM (inactive)
> 100 µM (inactive)
> 100 µM (inactive)
49.5 µM (inactive)
> 100 µM (inactive)

* * *

Tested on: DMS-114
Assay: NCI tumour cell line growth inhibition, 48 h
Activity calls are given as the source filed them. No stated cut-off is given here; in the data, active = GI50 up to about 1.1 µM and inactive = higher.
quantityKind: GI50

Consider the reported GI50 for these compounds:
[[record]]
compound = "C=C(C)C(=O)OC1CC2=CC(CC3(C)OC3C3OC(=O)C(=C)C13)OC2=O (stereo not given)"
assayvalue = "15.2 µM (inactive)"

[[record]]
compound = "CCOC(=O)Nc1ccc(S(=O)(=O)OC)cc1.CCOC(=O)Nc1ccc(S(=O)(=O)OC)cc1.Cc1cn(C2CC(O)C(CO)O2)c(=O)[nH]c1=O"
assayvalue = "69.7 µM (inactive)"

[[record]]
compound = "O=C1NCCCC12CCCNC2=O"
assayvalue = "> 100 µM (inactive)"


Below are 7 compounds. Give each one its GI50.
1. Nc1c(-c2ccccc2[N+](=O)[O-])nc2ccccn12
2. COc1ccc(/C=C/c2cc(OC)c(OC)c(OC)c2)cc1
3. Cc1ccc(N2C(=O)N(c3ccc(C)cc3)C3(SC=NN3C)C2=O)cc1 (stereo not given)
4. CCC1C2C=CC(CC2)N1S(=O)(=O)c1ccc(C)cc1 (stereo not given)
5. CCC1N2CCCCC2[C@@H]2c3[nH]c4ccccc4c3CCN12 (stereo not given in full)
6. Cc1ccc2c(CC(=O)O)cc(=O)oc2c1
7. CCc1cccc(CC)c1NC1=CC(=O)C(=O)c2ccccc21

-- reply
["> 100 µM (inactive)", "27 µM (inactive)", "31.2 µM (inactive)", "20.3 µM (inactive)", "> 100 µM (inactive)", "> 100 µM (inactive)", "12.4 µM (inactive)"]

Values from ChEMBL document CHEMBL1201862
